SYSTEM_UNDER_TEST: T1, cynomolgus monkey TF-His (cynomolgus monkey, UniProt A0A2K5VX02 33-253)
T1 construct: range 33-252; Recombinant extracellular segment expressed in HEK293-EBNA cells and purified on a nickel column; also called c.TF-His; c; TF-his; not shown: His tag from vector pTT5-His
T1 sequence: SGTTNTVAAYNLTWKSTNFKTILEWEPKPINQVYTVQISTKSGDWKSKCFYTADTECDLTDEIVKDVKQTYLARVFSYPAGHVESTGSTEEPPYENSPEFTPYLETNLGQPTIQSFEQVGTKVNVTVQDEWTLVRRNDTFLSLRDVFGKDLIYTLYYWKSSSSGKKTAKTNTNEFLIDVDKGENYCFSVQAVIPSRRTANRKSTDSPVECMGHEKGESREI
EXPERIMENT_NOTES: ELISA, plate coated with c.TF-His
Description: The ELISA plate was coated overnight with TF antigen (h.TF-His or c.TF-His antigen) in 50 mM carbonate coating buffer (CBS coating solution) at a coating concentration of 1 μg/mL in a volume of 100 μL at 4° C. […] 50 μL of 2 N HCl was added to each well to stop the reaction, and OD450 nm values were read using a microplate reader (manufacturer: MD, model: SpectraMax) and imported into GraphPad software for fitting and plotting to determine the binding of the samples to TF antigenic proteins. […]
MEASURED_ENDPOINT: EC50 (µg/mL)

{"BINDER": "27H8H3-hz1 (antibody, human IgG1, kappa, V domains shown, Humanized IgG1 kappa) VH: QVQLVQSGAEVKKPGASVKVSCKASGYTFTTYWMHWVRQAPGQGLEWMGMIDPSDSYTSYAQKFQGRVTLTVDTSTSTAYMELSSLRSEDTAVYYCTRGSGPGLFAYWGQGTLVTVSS VL: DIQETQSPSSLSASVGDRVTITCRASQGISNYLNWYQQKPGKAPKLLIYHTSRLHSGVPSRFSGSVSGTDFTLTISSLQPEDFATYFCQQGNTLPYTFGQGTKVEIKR", "READOUT_UNITS": "µg/mL", "RESULT_NUMBER": 0.0114}

Where these numbers come from: patent US20250333541A1
